Numbers sourced from paper PMC9352680.

In this section we review reported Kd values for a set of binders.
- Assayed Target: T1, PUF4 RNA-binding domain (Saccharomyces cerevisiae, UniProt P25339 537-888)
- T1 sequence: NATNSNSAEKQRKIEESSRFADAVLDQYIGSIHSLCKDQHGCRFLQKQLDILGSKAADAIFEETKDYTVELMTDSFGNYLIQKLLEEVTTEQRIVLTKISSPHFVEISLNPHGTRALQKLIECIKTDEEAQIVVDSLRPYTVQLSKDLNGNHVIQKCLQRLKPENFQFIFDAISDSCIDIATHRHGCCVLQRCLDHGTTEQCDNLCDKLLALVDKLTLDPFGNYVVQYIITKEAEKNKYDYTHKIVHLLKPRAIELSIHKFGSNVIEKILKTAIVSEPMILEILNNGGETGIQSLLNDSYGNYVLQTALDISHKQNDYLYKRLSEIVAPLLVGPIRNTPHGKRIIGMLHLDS
- Experiment Description: Mg; RNA-MaP; 20 mM Na-HEPES pH 7.4, 30 mM KOAc, 0.75 mM MgCl2, 0.1% Tween-20, 5% glycerol, 0.1 mg/mL BSA, 2 mM DTT; 25 C; 0.0125-409.6 nM protein
- Run Conditions: tags: N-His6-TEV cleaved; C-SNAP kept, Cy3B-labelled; label: tethered on chip by stalled RNA polymerase

Binder	Unit Tag	Kd
UCUCUUUUGUAUUAUUAUCUCUU (ssRNA) [Ie_S1_P5E.1_K5.1_C5.1_H5.1_[+1T]_A5.1_F5.1_T5.1]	nM	5.92
UCUCUUUCUGUAUUAUUAUCUCUU (ssRNA) [Ie_S1_P5E.1_K5.1_C5.1_H5.1_[+1CT]_A5.1_F5.1_T5.1]	nM	3.96
Ic_S4_P3E.1_K3.1_C3.1_H3.1_A3.1_[T5C]_F3.1_[A8C]_T3.1 (ssRNA) RNA: UUUGACAACUGAUCGUUCUUUCUUGUACAUCUUCUUUCUCGAUCAGUUGUCUUU	nM	9.55
